assay: Human HepG2 cell viability assay in 384 well format; format: toxicity, cell-based; design: dose 125 nL, time 70.5 hour; concentration not given beside the values; conditions: HepG2 cells, read-out: Inhibition
Assignment: determine reported cytotoxicity at 70.5 h for the given molecules.
Give bare numbers, in %.

Cc1ccc(NC(=O)Cn2cc(I)cn2)cc1
15.3
O=C(NS(=O)(=O)c1ccc2c(c1)CCC2)C1COCCO1 (centres undefined)
26.8
COc1c2ccc(C(=O)NCCCn3ncccc3=O)cc2nn1C
13.9
CCn1cc(NC(=O)C2CCN(Cc3nc(C)c(C)o3)CC2)cn1
-11.4

Look at each molecule and report its cytotoxicity at 70.5 h.
1. CCc1ccc(C(=O)Nc2cc(N3CCNC3=O)ccc2Cl)o1
2. CN1CCN(C(=O)c2cn(-c3ccc(C(F)(F)F)cn3)nn2)CC1
3. O=C(NC[C@H]1OC[C@@H](NC2CCCC2)[C@@H]1O)C1CCCC1
4. Cc1cc(CN2CCC=C(CN(C)C(=O)c3ccco3)C2)no1
5. CC(C)NC(=O)[C@H]1C[C@@H]2[C@@H](C1)OCCN2Cc1cccnc1
6. CC(C)C(CNC(=O)Nc1cn[nH]c1)N1CCOCC1 (centres undefined)
7. CSCC(C)(O)CNc1ccccn1 (centres undefined)

Marked response:
[-5.46, -6.96, 10.4, -7.11, -2.77, -5.6, -1.72]

Look at each molecule and report its cytotoxicity at 70.5 h.
1. Cc1cc2c(=O)n3c(nc2s1)CCN(C(=O)c1ccnn1C)CC3
2. Cc1cnc(N2CCc3c(CN(C)Cc4ccco4)cncc3C2)nc1
3. COC(=O)c1ccc(C(=O)NCC(O)c2cccn2C)cc1 (centres undefined)
4. Cc1nn(C)c2ncc(NC(=O)N(C)Cc3cc(Cl)cn3C)cc12
5. O=C(NC1CCN(C2CC2)C1)c1cn(-c2ccc(F)cc2)nn1 (centres undefined)
6. CN(CCCOc1ccccc1)Cc1nc2c(cnn2C)c(=O)[nH]1

Marked response:
-8.17
-5.82
48.7
-4.9
-6.52
-1.06

====

Assignment: determine reported cytotoxicity at 70.5 h for the given compounds.
test: Human HepG2 cell viability assay in 384 well format; format: toxicity, cell-based; parameters: dose 125 nL, time 70.5 hour; concentration not given beside the values; settings: HepG2 cells, read-out: Inhibition
Answers are plain numbers, in %.

Some solved entries appear below for comparison.
Cc1cc(C(=O)N(C)C2CCN(C)C2)c2ccc(F)cc2n1 (stereo unspecified)
23.7
O=C(NCc1cccs1)[C@H]1CO[C@H]2CCN(C3CCCC3)C[C@H]2C1
4.95
CC(C)N1CC(n2ccnc2-c2nccn2C)CC1=O (stereo unspecified)
-7.49
Cc1nc(COC[C@H]2CCC[C@]23CN(C2CCOC2)CCO3)cs1 (stereo partly specified)
22.4
Cc1nc(CN(C)C2CCN(Cc3nc4c(F)cccc4[nH]3)C2)no1 (stereo unspecified)
4.6

Look at each compound and report its cytotoxicity at 70.5 h.
1. O=C(c1ccncc1)N1CCC2(CC1)CCN(C(=O)c1cccnc1)C2
2. Cc1cc(C)n(CC2CN(c3ccc(C#N)cn3)CCO2)n1 (stereo unspecified)
3. CC(=O)c1ccc(N2CCCC(CO)(Cc3ccccc3F)C2)nc1 (stereo unspecified)
4. Cc1cc(-c2cnc(N3CCC(O)CC3)nc2C(C)C)on1
5. CCN1CC2(CC1=O)CN(C(C)=O)CCN(S(=O)(=O)CC)C2 (stereo unspecified)
6. Cc1nnc(CN2CCCC2c2ccc(C(C)(C)C)cc2)o1 (stereo unspecified)

Marked response:
[-7.65, -3.22, 20.4, 20.4, -2.5, -3.63]
